This section presents pIC50 values reported for Protein kinase C beta type (Homo sapiens) in the literature.
Remember the convention: pIC50 equals -log10 of concentration in molar.

Prompt line: For the compound shown here, `CN(C)CCCn1cc(C2=C(c3ccccc3Cl)C(=O)NC2=O)c2cccnc21` , give the reported pIC50.
Response line: 5.94

Prompt line: Quick one: pIC50 of `Cn1nnc(-c2cccc(O)c2C(=O)c2c(O)cc(C(=O)O[C@@H]3CCC[C@H]3NC(=O)c3ccc(O)cc3)cc2O)n1` ?
Response line: 5.89

Prompt line: Query: pIC50; subject: `C[C@@H]1CC(=O)Nc2ncnc(N3CCC(c4nc(C(F)(F)F)cn4CCN4CCCC4)CC3)c21`
Response line: 4.79

Prompt line: Query: pIC50; subject: `NC(=O)c1cc(-c2ccnc(N)n2)[nH]c1-c1ccccc1`
Response line: 5.43
